experiment: Cytotoxicity Test I: virus-uninfected MT-4 cells, MTT method; format: cell-based; settings: virus-uninfected MT-4 cells, MTT method; read-out: CC50 (Test I), 50% survival concentration
Where a SMILES comes first, the peptide text is derived from it. Bridges are numbered along the chain shown (N, C = ends). [ ]: non-standard residue; d: D form. 2Nal = N[C@@H](Cc1ccc2ccccc2c1)C(=O)O; Cit = NC(=O)NCCC[C@H](N)C(=O)O
RECORDED METRIC: CC50

Inquiry: # CC50 lookup, item C[C@@H]1NC(=O)[C@@H](CCCCN)NC(=O)[C@H](CCCCN)NC(=O)[C@H](CCCN=C(N)N)NC(=O)[C@H](Cc2ccc(O)cc2)NC(=O)[C@@H](NC(=O)[C@H](Cc2ccc3ccccc3c2)NC(=O)[C@H](CCCN=C(N)N)NC(=O)[C@@H](N)CCCN=C(N)N)CSSC[C@@H](C(=O)N[C@@H](CCCN=C(N)N)C(=O)O)NC(=O)[C@H](CCCNC(N)=O)NC(=O)[C@H](CCCN=C(N)N)NC(=O)[C@H](Cc2ccc(O)cc2)NC1=O [TA14008] (H-RR[2Nal]CYRK[dK]AYR[Cit]CR-OH; disulfide 4-13)
Reply text: > 80 µM

---

assay: in vitro; assay type: in vitro ADME, cat; details: serum
Where a SMILES comes first, the peptide text is derived from it. Bridges are numbered along the chain shown (N, C = ends). [ ]: non-standard residue; d: D form. 2Nal = N[C@@H](Cc1ccc2ccccc2c1)C(=O)O; Cit = NC(=O)NCCC[C@H](N)C(=O)O
RECORDED METRIC: metabolised at 16 h, 0.5 mM

Inquiry: metabolised at 16 h, 0.5 mM for NCCCC[C@@H]1NC(=O)[C@H](CCCN=C(N)N)NC(=O)[C@H](Cc2ccc(O)cc2)NC(=O)[C@@H](NC(=O)[C@H](Cc2ccc3ccccc3c2)NC(=O)[C@H](CCCN=C(N)N)NC(=O)[C@@H](N)CCCN=C(N)N)CSSC[C@@H](C(=O)N[C@@H](CCCN=C(N)N)C(=O)O)NC(=O)[C@H](CCCNC(N)=O)NC(=O)[C@H](CCCN=C(N)N)NC(=O)[C@H](Cc2ccc(O)cc2)NC(=O)[C@@H]2CCCN2C(=O)[C@@H](CCCCN)NC1=O [Compound T140, reference compound] (H-RR[2Nal]CYRK[dK]PYR[Cit]CR-OH; disulfide 4-13) ?
Reply text: ~70%

---

test: Cytotoxicity Test I: virus-uninfected MT-4 cells, MTT method; type: cell-based; conditions: human, MT-4 cells (virus-uninfected); virus-uninfected MT-4 cells, MTT method; read-out: CC50 (Test I), 50% survival concentration
Where a SMILES comes first, the peptide text is derived from it. Bridges are numbered along the chain shown (N, C = ends). [ ]: non-standard residue; d: D form. 2Nal = N[C@@H](Cc1ccc2ccccc2c1)C(=O)O; Cit = NC(=O)NCCC[C@H](N)C(=O)O
CC50 listing for selected compounds.

Study these solved cases before continuing.
{"COMPOUND": "N=C(N)NCCC[C@H](NC(=O)[C@@H]1CSSC[C@H](NC(=O)[C@H](Cc2ccc3ccccc3c2)NC(=O)[C@H](CCCNC(=N)N)NC(=O)[C@@H](N)CCCNC(=N)N)C(=O)N[C@@H](Cc2ccc(O)cc2)C(=O)N[C@@H](CCCNC(N)=O)C(=O)N[C@@H](CCCCN)C(=O)N[C@H](CCCNC(N)=O)C(=O)N2CCC[C@H]2C(=O)N[C@@H](Cc2ccc(O)cc2)C(=O)N[C@@H](CCCNC(=N)N)C(=O)N[C@@H](CCCNC(N)=O)C(=O)N1)C(=O)O [TC14011]", "VALUE MEASURED": "> 100 µM"}
{"COMPOUND": "N=C(N)NCCC[C@H](NC(=O)[C@@H]1CSSC[C@H](NC(=O)[C@H](Cc2ccc3ccccc3c2)NC(=O)[C@H](CCCNC(=N)N)NC(=O)[C@@H](N)CCCNC(=N)N)C(=O)N[C@@H](Cc2ccc(O)cc2)C(=O)N[C@@H](CCCNC(N)=O)C(=O)N[C@@H](CCCCN)C(=O)N[C@H](CCCCN)C(=O)N2CCC[C@H]2C(=O)N[C@@H](Cc2ccc(O)cc2)C(=O)N[C@@H](CCCNC(=N)N)C(=O)N[C@@H](CCCNC(N)=O)C(=O)N1)C(N)=O [TN14003] (H-RR[2Nal]CY[Cit]K[dK]PYR[Cit]CR-NH2; disulfide 4-13 (inferred))", "VALUE MEASURED": "> 100 µM"}

Here is the next item to consider.
Inquiry: Any idea what its CC50 is? The compound is NCCCC[C@@H]1NC(=O)[C@H](CCCN=C(N)N)NC(=O)[C@H](Cc2ccc(O)cc2)NC(=O)[C@@H](NC(=O)[C@H](Cc2ccc3ccccc3c2)NC(=O)[C@H](CCCN=C(N)N)NC(=O)[C@@H](N)CCCN=C(N)N)CSSC[C@@H](C(=O)N[C@@H](CCCN=C(N)N)C(=O)O)NC(=O)[C@H](CCCNC(N)=O)NC(=O)[C@H](CCCN=C(N)N)NC(=O)[C@H](Cc2ccc(O)cc2)NC(=O)[C@@H]2CCCN2C(=O)[C@@H](CCCNC(N)=O)NC1=O [TC14005]
Reply text: > 80 µM

---

The following compounds are listed with their measured SI: CC50 (Test I)/EC50 values.
test system: virus-uninfected MT-4 cells; experiment: Cytotoxicity Test I: virus-uninfected MT-4 cells, MTT method; assay type: cell-based; settings: selective index, MT-4 CC50 over anti-HIV EC50
Where a SMILES comes first, the peptide text is derived from it. Bridges are numbered along the chain shown (N, C = ends). [ ]: non-standard residue; d: D form. 2Nal = N[C@@H](Cc1ccc2ccccc2c1)C(=O)O; Cit = NC(=O)NCCC[C@H](N)C(=O)O

{"COMPOUND": "NCCCC[C@@H]1NC(=O)[C@H](CCCNC(N)=O)NC(=O)[C@H](Cc2ccc(O)cc2)NC(=O)[C@@H](NC(=O)[C@H](Cc2ccc3ccccc3c2)NC(=O)[C@H](CCCN=C(N)N)NC(=O)[C@@H](N)CCCN=C(N)N)CSSC[C@@H](C(=O)N[C@@H](CCCN=C(N)N)C(=O)O)NC(=O)[C@H](CCCNC(N)=O)NC(=O)[C@H](CCCN=C(N)N)NC(=O)[C@H](Cc2ccc(O)cc2)NC(=O)[C@@H]2CCCN2C(=O)[C@@H](CCCCN)NC1=O [TC14003] (H-RR[2Nal]CY[Cit]K[dK]PYR[Cit]CR-OH; disulfide 4-13)", "ASSAYED TARGET": "virus-uninfected MT-4 cells", "VALUE MEASURED": ">29000"}
{"COMPOUND": "N=C(N)NCCC[C@H](NC(=O)[C@@H]1CSSC[C@H](NC(=O)[C@H](Cc2ccc3ccccc3c2)NC(=O)[C@H](CCCNC(=N)N)NC(=O)[C@@H](N)CCCNC(=N)N)C(=O)N[C@@H](Cc2ccc(O)cc2)C(=O)N[C@@H](CCCNC(N)=O)C(=O)N[C@@H](CCCCN)C(=O)N[C@H](CCCNC(N)=O)C(=O)N2CCC[C@H]2C(=O)N[C@@H](Cc2ccc(O)cc2)C(=O)N[C@@H](CCCNC(=N)N)C(=O)N[C@@H](CCCNC(N)=O)C(=O)N1)C(=O)O", "ASSAYED TARGET": "virus-uninfected MT-4 cells", "VALUE MEASURED": ">200000"}
{"COMPOUND": "N=C(N)NCCC[C@H](NC(=O)[C@@H]1CSSC[C@H](NC(=O)[C@H](Cc2ccc3ccccc3c2)NC(=O)[C@H](CCCNC(=N)N)NC(=O)[C@@H](N)CCCNC(=N)N)C(=O)N[C@@H](Cc2ccc(O)cc2)C(=O)N[C@@H](CCCNC(N)=O)C(=O)N[C@@H](CCCCN)C(=O)N[C@H](CCCNC(N)=O)C(=O)N2CCC[C@H]2C(=O)N[C@@H](Cc2ccc(O)cc2)C(=O)N[C@@H](CCCNC(=N)N)C(=O)N[C@@H](CCCNC(N)=O)C(=O)N1)C(N)=O", "ASSAYED TARGET": "virus-uninfected MT-4 cells", "VALUE MEASURED": ">250000"}
{"COMPOUND": "Cc1cn([C@H]2C[C@H](N=[N+]=[N-])[C@@H](CO)O2)c(=O)[nH]c1=O [AZT, 3′-azido-2′,3′-dideoxythymidine, reference compound]", "ASSAYED TARGET": "virus-uninfected MT-4 cells", "VALUE MEASURED": 4000}
{"COMPOUND": "C[C@H]1NC(=O)[C@H](CCCCN)NC(=O)[C@H](CCCN=C(N)N)NC(=O)[C@H](Cc2ccc(O)cc2)NC(=O)[C@@H](NC(=O)[C@H](Cc2ccc3ccccc3c2)NC(=O)[C@H](CCCN=C(N)N)NC(=O)[C@@H](N)CCCN=C(N)N)CSSC[C@@H](C(=O)N[C@@H](CCCN=C(N)N)C(=O)O)NC(=O)[C@H](CCCNC(N)=O)NC(=O)[C@H](CCCN=C(N)N)NC(=O)[C@H](Cc2ccc(O)cc2)NC(=O)[C@@H]2CCCN2C1=O [TA14007] (H-RR[2Nal]CYRK[dA]PYR[Cit]CR-OH; disulfide 4-13)", "ASSAYED TARGET": "virus-uninfected MT-4 cells", "VALUE MEASURED": ">5200"}
{"COMPOUND": "NCCCC[C@@H]1NC(=O)[C@H](CCCN=C(N)N)NC(=O)[C@H](Cc2ccc(O)cc2)NC(=O)[C@@H](NC(=O)[C@H](Cc2ccc3ccccc3c2)NC(=O)[C@H](CCCN=C(N)N)NC(=O)[C@@H](N)CCCN=C(N)N)CSSC[C@@H](C(=O)N[C@@H](CCCN=C(N)N)C(=O)O)NC(=O)[C@H](CCCNC(N)=O)NC(=O)[C@H](CCCN=C(N)N)NC(=O)[C@H](Cc2ccc(O)cc2)NC(=O)[C@@H]2CCCN2C(=O)[C@@H](CCCCN)NC1=O [Compound T140, reference compound] (H-RR[2Nal]CYRK[dK]PYR[Cit]CR-OH; disulfide 4-13)", "ASSAYED TARGET": "virus-uninfected MT-4 cells", "VALUE MEASURED": ">>300"}

Kindly consider the entry below.
Inquiry: virus-uninfected MT-4 cells / SI: CC50 (Test I)/EC50 / C[C@@H]1NC(=O)[C@@H](CCCCN)NC(=O)[C@H](CCCCN)NC(=O)[C@H](CCCN=C(N)N)NC(=O)[C@H](Cc2ccc(O)cc2)NC(=O)[C@@H](NC(=O)[C@H](Cc2ccc3ccccc3c2)NC(=O)[C@H](CCCN=C(N)N)NC(=O)[C@@H](N)CCCN=C(N)N)CSSC[C@@H](C(=O)N[C@@H](CCCN=C(N)N)C(=O)O)NC(=O)[C@H](CCCNC(N)=O)NC(=O)[C@H](CCCN=C(N)N)NC(=O)[C@H](Cc2ccc(O)cc2)NC1=O [TA14008] (H-RR[2Nal]CYRK[dK]AYR[Cit]CR-OH; disulfide 4-13) : value?
Reply text: >4700
